B1: ZNF24 (parent)
chain: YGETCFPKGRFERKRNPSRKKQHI

variants of: B1; test: protein stability index of a GFP-peptide fusion (GPS, HEK-293T) (PSI 1-6); higher = more stable; settings: c terminus: a fixed tail appended;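 note: lentivirally expressed fusions sorted by FACS into six bins by GFP to DsRed ratio, PSI derived from sequencing read proportions per bin multiplied by bin number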
measured-property: protein stability index
Give your answer as a number; write no unit.

Reported protein stability index, variant R15M : ____ 3.17

Reported protein stability index, variant P7M : ____ 3.07

Reported protein stability index, variant P17W : ____ 2.52

Reported protein stability index, variant F11D : ____ 2.99

Reported protein stability index, variant E12D : ____ 3.26

Reported protein stability index, variant Y1G : ____ 4.63

Reported protein stability index, variant G9S : ____ 3

Reported protein stability index, variant E12C : ____ 2.8

Reported protein stability index, variant R19T : ____ 3.5

Reported protein stability index, variant F11T : ____ 3.28

Reported protein stability index, variant R13C : ____ 2.33

Reported protein stability index, variant R15G : ____ 2.75

Reported protein stability index, variant K20V : ____ 2.66

Reported protein stability index, variant C5I : ____ 3.16

Reported protein stability index, variant R10Q : ____ 3.38

Reported protein stability index, variant R19V : ____ 2.89

Reported protein stability index, variant C5L : ____ 3.05

Reported protein stability index, variant R10E : ____ 3.07

Reported protein stability index, variant R13G : ____ 2.22

Reported protein stability index, variant I24W : ____ 2.3

Reported protein stability index, variant K21F : ____ 2.09

Reported protein stability index, variant G2S : ____ 3.4
